The measurements presented in this section are drawn from PubChem BioAssay.

- Test Description: viability loss in pontine glioma line – cell-based, SU-DIPG-XXV, MIPE5.0, CellTiter-Glo, qHTS, dose response (AID 1347065);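 note: cells exposed to compound for 48 hours before ATP readout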
- Cond: CellTiter-Glo ATP luminescence
Results filed as inconclusive are left out. The source made the active and inactive calls. No cut-off is given here; in the data, nearly all actives have AC50 up to about 26 µM.
Classes used: active, inactive

>>> df
                                    compound  label_value
 0  COc1cccc2c1C(=O)c1c(O)c3c(c(O)c1C2=O)C[C@@](O)(C(=O)CO)C[C@@H]3O[C@H]1C[C@H](N)[C@H](O)[C@H](C)O1       active
 1  C#C[C@]1(O)CC[C@H]2[C@@H]3CCc4cc(OC)ccc4[C@H]3CC[C@@]21C     inactive
 2    O=C1CCc2cc(OCCCCc3nnnn3C3CCCCC3)ccc2N1     inactive
 3  O=C(O)c1cn(-c2ccc(F)cc2)c2cc(N3CCNCC3)c(F)cc2c1=O     inactive
 4  COc1ccc(CCN(C)CCCC(C#N)(c2ccc(OC)c(OC)c2)C(C)C)cc1OC (configuration not stated)     inactive
 5      N#Cc1ccc(C(c2ccc(C#N)cc2)n2cncn2)cc1     inactive
 6                  Cc1cnc(C(=O)O)c[n+]1[O-]     inactive
 7  CO[C@@H]1[C@@H](OC(N)=O)[C@@H](O)[C@H](Oc2ccc3c(O)c(NC(=O)c4ccc(O)c(CC=C(C)C)c4)c(=O)oc3c2C)OC1(C)C     inactive
 8                     Oc1ccc(OCc2ccccc2)cc1     inactive
 9  CN1C(C(=O)Nc2ccccn2)=C(O)c2sccc2S1(=O)=O     inactive
10                              NCCCCCC(=O)O     inactive
11  COC(=O)[C@@H]1[C@H]2C[C@H]3c4[nH]c5ccccc5c4CCN3C[C@@H]2CC[C@@H]1O     inactive
12  CCC1(C)CC(=O)NC1=O (configuration not stated)     inactive
13                   CCCCOc1ccc(CC(=O)NO)cc1     inactive
14  CC(C)[C@H](N)C(=O)OCCOCn1cnc2c(=O)[nH]c(N)nc21     inactive
15          CN1CCC(=C2c3ccccc3CCc3sccc32)CC1     inactive
16               NC(=O)OCC(COC(N)=O)c1ccccc1     inactive
17     CN(C)c1ccc2nc3ccc(=[N+](C)C)cc-3sc2c1       active
18                          NNc1nncc2ccccc12     inactive
19  COCCCOc1cc(C[C@@H](C[C@H](N)[C@@H](O)C[C@H](C(=O)NCC(C)(C)C(N)=O)C(C)C)C(C)C)ccc1OC     inactive
20  C[N+]1(C)[C@@H]2CC(OC(=O)[C@H](CO)c3ccccc3)C[C@H]1[C@@H]1O[C@@H]12 (some centres not stated)     inactive
21                 CNNCc1ccc(C(=O)NC(C)C)cc1     inactive

* * *

- Test Description: 75Q-TubH aggregate inhibition, S. cerevisiae, yeast (AID 1616)
- Cond: S. cerevisiae 75Q-TubH polyglutamine aggregation suppression; stronger effect = higher value
Lab note: compare aggregation suppression score against 1. Equal or greater, write 1 (yes). Smaller, write 0 (no).

                                    compound  label_value
 0  Oc1c(Cl)cc(Cl)c(Cl)c1Cc1c(O)c(Cl)cc(Cl)c1Cl       0 (no)
 1            CN(Cc1cc(Br)cc(Br)c1N)C1CCCCC1      1 (yes)
 2       CC/C(=C(/CC)c1ccc(O)cc1)c1ccc(O)cc1       0 (no)
 3                      O=c1cc[nH]c(=S)[nH]1      1 (yes)
 4                     CCCCCCOc1ccccc1C(N)=O       0 (no)
 5            Cn1c([N+](=O)[O-])cnc1COC(N)=O      1 (yes)
 6  NC(=NCCCCCCN=C(N)/N=C(\N)Nc1ccc(Cl)cc1)/N=C(\N)Nc1ccc(Cl)cc1       0 (no)
 7  CCOc1ccc(Cc2nccc3cc(OCC)c(OCC)cc23)cc1OCC      1 (yes)
 8                                   N=C(N)N       0 (no)
 9              Cn1c(=O)c2c(ncn2CCO)n(C)c1=O      1 (yes)
10  O=C(N[C@H](CO)[C@H](O)c1ccc([N+](=O)[O-])cc1)C(Cl)Cl      1 (yes)
11                     NC(=O)NC(=O)Cc1ccccc1      1 (yes)
12  CC(=O)N(O)CCCCCNC(=O)CCC(=O)N(O)CCCCCNC(=O)CCC(=O)N(O)CCCCCN      1 (yes)
13  CC1CCc2cc(F)cc3c(=O)c(C(=O)O)cn1c23 (stereo not given)       0 (no)
14                      Nc1ccc(C(=O)O)c(O)c1      1 (yes)
15                Cn1c(=O)c2c(ncn2C)n(C)c1=O      1 (yes)
16       Oc1c(Cl)cc(Cl)cc1Sc1cc(Cl)cc(Cl)c1O       0 (no)
17                         Nc1ccc(C(=O)O)cc1      1 (yes)
18  CC(C)(Oc1ccc(CCNC(=O)c2ccc(Cl)cc2)cc1)C(=O)O      1 (yes)
19  O=C(COc1ccc(Cl)cc1)N1CCN(Cc2ccc3c(c2)OCO3)CC1      1 (yes)
20    CN(C)CCCN1c2ccccc2Sc2ccc(C(F)(F)F)cc21      1 (yes)
21                 Cc1ncc([N+](=O)[O-])n1CCO       0 (no)
22    Cc1cccc(C)c1OCC(C)N (stereo not given)      1 (yes)
23                         C#CCN(C)Cc1ccccc1      1 (yes)
24           COc1ccc(CN(CCN(C)C)c2ccccn2)cc1      1 (yes)
25                O=C1C(O)=C(O)C(=O)C(O)=C1O      1 (yes)
26                        C[n+]1ccccc1/C=N/O      1 (yes)
27  CCn1cc(C(=O)O)c(=O)c2cc(F)c(N3CCNC(C)C3)c(F)c21 (stereo not given)      1 (yes)
28  CO[C@@]1(NC(=O)C(C(=O)O)c2ccc(O)cc2)C(=O)N2C(C(=O)O)=C(CSc3nnnn3C)CO[C@@H]21 (stereo not given in full)      1 (yes)
29  CCCCC1C(=O)N(c2ccccc2)N(c2ccc(O)cc2)C1=O (stereo not given)       0 (no)
30     CCN(CC)CCNC(=O)c1cc(S(C)(=O)=O)ccc1OC      1 (yes)
31               Oc1ccc(Cl)cc1Cc1cc(Cl)ccc1O       0 (no)
32  CN1C(C(=O)Nc2ccccn2)=C(O)c2sccc2S1(=O)=O       0 (no)
33                       NC(N)=NCCN1CCCCCCC1      1 (yes)
34  CCC(Cc1c(I)cc(I)c(N)c1I)C(=O)O (stereo not given)       0 (no)
35  Nc1nc2c(c(=O)[nH]1)N(C=O)C(CNc1ccc(C(=O)N[C@@H](CCC(=O)O)C(=O)O)cc1)CN2 (stereo not given in full)      1 (yes)
36  CC(NCCC(c1ccccc1)c1ccccc1)c1ccccc1 (stereo not given)      1 (yes)
37            NC(=O)c1ccc([N+](=O)[O-])cc1Cl      1 (yes)
38  Cc1onc(-c2ccccc2Cl)c1C(=O)N[C@@H]1C(=O)N2[C@@H]1SC(C)(C)[C@@H]2C(=O)O      1 (yes)
39  CC[C@]12CCCN3CCc4c(n(c5ccccc45)C(=O)C1)[C@@H]32      1 (yes)
40               CCCCOc1ccc(OCCCN2CCOCC2)cc1      1 (yes)
41  CCN(CCCCOC(=O)c1ccc(OC)c(OC)c1)C(C)Cc1ccc(OC)cc1 (stereo not given)      1 (yes)
42  CCn1cc(C(=O)O)c(=O)c2cc(F)c(N3CCNCC3)nc21      1 (yes)
43                   CC(=O)N[C@@H](CS)C(=O)O      1 (yes)
44             Nc1ccc(S(=O)(=O)Nc2ccccn2)cc1      1 (yes)
45   NC(=O)NC1NC(=O)NC1=O (stereo not given)       0 (no)
46      CN1CCC(=C2c3ccccc3CC(=O)c3sccc32)CC1      1 (yes)
47     Cc1cc(CC(=O)O)n(C)c1C(=O)c1ccc(Cl)cc1       0 (no)
